From: the supplement of paper PMC9170038

Tested on: K4 kissing-loop RNA reporter;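 also: bound reporter read as fluorescence of individual clusters on recovered sequencing chips by microscopy, with normalized cluster intensities fitted with a binding model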
experiment: apparent KD of K4 kissing-loop reporter; higher = weaker reporter binding
condition.summary: Eterna round: R107; input ligand: tryptophan 2.4 mM
Short version: apparent KD of K4 kissing-loop reporter at least 300 nM is MET, less is NOT MET.

GGCGCUGUCUGUGCCGCCCUCCUCGUCCCUCGAGGACCGGUACGGCCGCCACUCGAGUGAUGUUCGGGUAGCCCUCCCUGCCAGC [BDazzled - #22 Exc. Tryptophan A]	NOT MET
CGCGCGCGCCGCAAGGCGCGCGCGAACGAUACCAGUAUAUAAGAAUACCCUUGGCAGCGUAAGAAAGCUAUAGUGAUGUUGUAGA [#19 K4 Theophylline A Same State]	NOT MET

Does the sequence AACUCUCAGACAUCUGAGUGAUGUUCAGGCCGAGGACCGGUACGGCCGCCACUCGGGUCUGAGAGAGGUUAUCAAAGAUAGCCAA [Omei KL Tryp A SS A v4] have recorded apparent KD of K4 kissing-loop reporter that is 300 nM or more?
MET

Entry UGACUACAAAAGGAAUAAUCCUAGUGAUGUUAGGAUAUGCUGAUAAGCAGAAGGAACGGAGAUCGAAAGAUCUCAUAUGUAGUCU [whbob_Ex_FMNA__2th192] : is its apparent KD of K4 kissing-loop reporter no less than 300 nM?
NOT MET

Determine whether measured apparent KD of K4 kissing-loop reporter meets or exceeds 300 nM for UCCUGCAAUCCGCCACGAAAGUGGAUGGAUACCAGAGUCGAAAGACUCCCUUGGCAGCCAGUGAUGUUGGAAGCAGGUAAAUAAA
MET

Reported apparent KD of K4 kissing-loop reporter at or above 300 nM? UUUAUGAUGUCGGCCGCCACUGGAUUAAUAUGUGUGUAAUCUAGUUCUGAGUGAUGUUUAGAGUCCAGGACCGGGACAUUAGUUA [#12 K4 Tryptophan B Exclusion]
MET
